pIC50 tested on Tyrosine-protein kinase BTK (Homo sapiens, UniProt Q06187): recorded values
Sequence (Q06187 whole entry): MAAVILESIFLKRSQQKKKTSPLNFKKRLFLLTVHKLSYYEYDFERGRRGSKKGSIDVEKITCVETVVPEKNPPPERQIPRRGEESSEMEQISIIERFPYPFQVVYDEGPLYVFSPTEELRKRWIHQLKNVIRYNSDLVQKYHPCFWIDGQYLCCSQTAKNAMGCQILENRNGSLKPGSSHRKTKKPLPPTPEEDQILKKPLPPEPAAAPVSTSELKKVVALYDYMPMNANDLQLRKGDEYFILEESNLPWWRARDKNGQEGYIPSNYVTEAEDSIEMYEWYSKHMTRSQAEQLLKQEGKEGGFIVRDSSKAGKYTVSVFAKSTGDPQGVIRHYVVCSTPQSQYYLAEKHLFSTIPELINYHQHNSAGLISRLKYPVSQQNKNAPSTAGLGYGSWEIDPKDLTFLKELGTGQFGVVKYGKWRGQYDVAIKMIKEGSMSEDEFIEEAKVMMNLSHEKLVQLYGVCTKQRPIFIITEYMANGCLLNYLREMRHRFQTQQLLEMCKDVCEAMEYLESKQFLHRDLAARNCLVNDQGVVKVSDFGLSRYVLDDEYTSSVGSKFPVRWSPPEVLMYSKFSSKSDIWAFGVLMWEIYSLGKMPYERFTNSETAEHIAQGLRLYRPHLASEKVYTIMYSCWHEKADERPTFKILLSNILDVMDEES
The meaning of pIC50 here: minus log10 of the concentration in molar units.

# example entries with known answers
C=CC(=O)N1CCC[C@@H](n2nc(C#CCCOc3ccccc3)c3c(N)ncnc32)C1
7.40
C=CC(=O)N1CCC[C@@H](n2nc(C#CCOc3ccc(C)cc3)c3c(N)ncnc32)C1
7.57
C=CC(=O)N1CCC[C@@H](n2nc(/C=C\COc3ccccc3)c3c(N)ncnc32)C1
7.63

Look up pIC50 with Tyrosine-protein kinase BTK (Homo sapiens, UniProt Q06187) for this molecule: C=CC(=O)N1CCC[C@@H](n2nc(C#CCOc3ccccc3C)c3c(N)ncnc32)C1
7.31

Param readout= pIC50; system= Tyrosine-protein kinase BTK (Homo sapiens, UniProt Q06187); entry= C=CC(=O)N1CCC[C@@H](n2nc(C#CCNc3ccccc3)c3c(N)ncnc32)C1 ; returns value.
7.74
